For each of the compounds below, state its pIC50.
Tested on: MIA PaCa-2
Assay: Antiproliferative activity against human MiaPaCa2 cells after 72 hrs by MTT assay a
Assay type: functional, cell-based
Conditions: MIA PaCa-2, 72 h
Notebook: values listed as pIC50 are -log10 of the concentration (mol/L).

Query: Recall the recorded pIC50 for C[n+]1ccc(CCC(=O)OCCCC2=C/Nc3ccccc3/N=C/C(CCCOC(=O)CCc3cc[n+](C)cc3)=C\Nc3ccccc3\N=C\2)cc1.[Br-].[Br-] with MIA PaCa-2 and state it.
Reply: 5.59

Query: Notebook: pull reported pIC50 for MIA PaCa-2, entry C1=C(CCC[n+]2ccccc2)\C=N\c2ccccc2N/C=C(CCC[n+]2ccccc2)\C=N\c2ccccc2N/1.[Br-].[Br-]
Reply: 5.92

Where do the numbers come from? From ChEMBL document CHEMBL1146336.
